target: C-X-C chemokine receptor type 2 (Homo sapiens, UniProt P25025); test: Antagonist activity at CXCR2 (unknown origin) transfected in RBL cells assessed as inhibition of IL-8-mediated intracellular calcium release preincubated for 30 mins followed by IL-8 addition by FLUO-4AM-based fluorescent microplate reader analysis
Sequence (P25025 whole entry): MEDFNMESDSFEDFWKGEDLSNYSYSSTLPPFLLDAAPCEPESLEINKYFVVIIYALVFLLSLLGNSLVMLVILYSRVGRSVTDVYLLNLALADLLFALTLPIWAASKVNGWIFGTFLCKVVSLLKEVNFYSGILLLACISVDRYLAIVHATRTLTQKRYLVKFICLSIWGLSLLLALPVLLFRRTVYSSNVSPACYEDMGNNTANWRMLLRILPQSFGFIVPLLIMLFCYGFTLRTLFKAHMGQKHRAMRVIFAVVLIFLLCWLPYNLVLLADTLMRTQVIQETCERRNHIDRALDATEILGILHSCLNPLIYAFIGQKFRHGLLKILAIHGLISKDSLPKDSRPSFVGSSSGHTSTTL
reported-property: IC50

>  <structure-smiles-string>
O=C(O)CN(Cc1ccc(B(O)O)cn1)c1ncc(C(=O)Nc2ccc(F)cc2)cn1

>  <IC50>
> 5 µM

$$$$
>  <structure-smiles-string>
NCCN(Cc1ccc(B(O)O)cn1)c1ncc(C(=O)Nc2ccc(F)cc2)cn1

>  <IC50>
> 5 µM

$$$$

Okay, next one:
Challenge: Fill in: IC50 of `CN(Cc1ccccc1B(O)O)c1ccc(C(=O)Nc2ccc(F)cc2)cn1` is ___
Response given: > 5 µM
